# Target Of Assay: 73‐DY (human)
# Method: SPR; BIAcore 8K, 25 °C, HBS‐EP+ buffer; antibodies with hIgG‐Fc immobilised on a Series S Protein A sensor chip at 300 RU; recombinant mouse FcγRs injected at 400 to 3.125 nM, 30 µL/min, 90 s association, 120 s dissociation; 1:1 Langmuir binding model
Hi there, I'd appreciate the recorded pKd for every entry that follows.
Numbers only, as −log10 of the molar value.

// solved cases for pKd follow
- Binder: "mouse FcγRIV (receptor) GLQKAVVNLDPKWVRVLEEDSVTLRCQGTFSPEDNSIKWFHNESLIPHQDANYVIQSARVKDSGMYRCQTALSTISDPVQLEVHMGWLLLQTTKWLFQEGDPIHLRCHSWQNRPVRKVTYLQNGKGKKYFHENSELLIPKATHNDSGSYFCRGLIGHNNKSSASFRISLGDPGSPSMFPPWHQ"
  pKd: 7.27
- Binder: "mouse FcγRII (receptor) THDLPKAVVKLEPPWIQVLKEDTVTLTCEGTHNPGNSSTQWFHNGRSIRSQVQASYTFKATVNDSGEYRCQMEQTRLSDPVDLGVISDWLLLQTPQLVFLEGETITLRCHSWRNKLLNRISFFHNEKSVRYHHYSSNFSIPKANHSHSGDYYCKGSLGRTLHQSKPVTITVQGPKSSRSLP"
  pKd: 8.01
- Binder: "mouse FcγRI (receptor) EVVNATKAVITLQPPWVSIFQKENVTLWCEGPHLPGDSSTQWFINGTAVQISTPSYSIPEASFQDSGEYRCQIGSSMPSDPVQLQIHNDWLLLQASRRVLTEGEPLALRCHGWKNKLVYNVVFYRNGKSFQFSSDSEVAILKTNLSHSGIYHCSGTGRHRYTSAGVSITVKELFTTPVLRASVSSPFPEGSLVTLNCETNLLLQRPGLQLHFSFYVGSKILEYRNTSSEYHIARAEREDAGFYWCEVATEDSSVLKRSPELELQVLGPQSSAP"
  pKd: 7.95

// below: pKd requested for another binder
INPUT: Name the reported pKd value associated with the binder mouse FcγRIII (receptor) ALPKAVVKLDPPWIQVLKEDMVTLMCEGTHNPGNSSTQWFHNGRSIRSQVQASYTFKATVNDSGEYRCQMEQTRLSDPVDLGVISDWLLLQTPQRVFLEGETITLRCHSWRNKLLNRISFFHNEKSVRYHHYKSNFSIPKANHSHSGDYYCKGSLGSTQHQSKPVTITVQDPATTSSISLVWYHT
OUTPUT: 7.92
